Origin of values: patent US10544103B2

# systemTested: 5-HT2B receptor (Homo sapiens, UniProt P41595)
# Construct: host or cells: CHO-K1
# Sequence (P41595 whole entry): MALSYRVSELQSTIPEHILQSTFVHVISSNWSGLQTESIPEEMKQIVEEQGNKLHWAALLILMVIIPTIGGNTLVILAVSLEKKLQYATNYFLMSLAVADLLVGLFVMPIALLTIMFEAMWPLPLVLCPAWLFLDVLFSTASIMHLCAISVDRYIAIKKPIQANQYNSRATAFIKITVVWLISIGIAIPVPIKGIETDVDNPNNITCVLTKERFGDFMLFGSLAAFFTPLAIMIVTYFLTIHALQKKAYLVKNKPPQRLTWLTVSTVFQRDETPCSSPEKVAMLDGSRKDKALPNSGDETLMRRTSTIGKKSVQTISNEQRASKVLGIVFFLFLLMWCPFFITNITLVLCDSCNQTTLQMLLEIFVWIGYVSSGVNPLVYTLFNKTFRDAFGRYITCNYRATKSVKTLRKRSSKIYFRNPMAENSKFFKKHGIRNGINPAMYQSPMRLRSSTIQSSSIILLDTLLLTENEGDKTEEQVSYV
# methodNotes: 5-HT2B receptor agonism, IP-1 accumulation in CHO-K1 cells without prior 5-HT stimulation
# Type: cell-based
# particulars: 1 uM, % of IP-1 accumulation induced by 5-HT (1 uM)
quantity: activation at 1 µM (%)
Report the figure in % without appending any unit label.

For N=C(N)N1CCC(c2cccc3ccccc23)=N1 [Example 9] the molecule record lists activation at 1 µM as -13

The molecule identified as CC1CN(C(=N)N)N=C1c1ccccc1O.Cl (stereo not shown) [Example 17] registered its activation at 1 µM at 2

Cl.N=C(N)N1CCC(c2ccccc2O)=N1 [Example 3] has a reported activation at 1 µM of -2

// activation at 1 µM lookup, molecule = C[C@@H]1CN(C(=N)N)N=C1c1ccccc1O (single isomer, unassigned) [Example 38] , result: -2

Lab note: measured activation at 1 µM of COc1ccccc1C1=NN(C(=N)N)CC1 [Example 1] was -5

Quick note, activation at 1 µM for N=C(NCc1ccccc1)N1CCC(c2ccccc2Cl)=N1 [Example 21] landed at -6

Reported activation at 1 µM of N=C(NCc1ccccc1)N1CCC(c2ccccc2O)=N1 [Example 22] : -3
